Substrate: Cc1cc(=O)oc2cc(NC(=O)[C@@H](N)CCCNC(=N)N)ccc12
Experiment: fluorescence of released amc, Hill equation fit
Assay type: biochemical, Pyrococcus horikoshii
Conditions: 50 mM sodium phosphate pH 7.5, 358 K, 60 min, aminopeptidase, 85.0 °C
Below is a list of entries, each paired with its recorded kcat value.
Parameter: kcat (s⁻¹)

protein="PH1704 protease (Pyrococcus horikoshii OT3; Y120W) (protein, full-length gene in pET-15b (NdeI/BamHI), His-tag (detected by anti-His western blot), E. coli BL21(DE3); heat step and Sephacryl S-200) MKVLFLTANEFEDVELIYPYHRLKEEGHEVYIASFERGTITGKHGYSVKVDLTFDKVNPEEFDALVLPGGRAPERVRLNEKAVSIARKMFSEGKPVASICHGPQILISAGVLRGRKGTSWPGIKDDMINAGVEWVDAEVVVDGNWVSSRVPADLYAWMREFVKLLK" result_value=0.02
protein="PH1704 protease (Pyrococcus horikoshii OT3; Y120P) (protein, full-length gene in pET-15b (NdeI/BamHI), His-tag (detected by anti-His western blot), E. coli BL21(DE3); heat step and Sephacryl S-200) MKVLFLTANEFEDVELIYPYHRLKEEGHEVYIASFERGTITGKHGYSVKVDLTFDKVNPEEFDALVLPGGRAPERVRLNEKAVSIARKMFSEGKPVASICHGPQILISAGVLRGRKGTSPPGIKDDMINAGVEWVDAEVVVDGNWVSSRVPADLYAWMREFVKLLK" result_value=0.0728
protein="PH1704 protease (Pyrococcus horikoshii OT3; Y120S) (protein, full-length gene in pET-15b (NdeI/BamHI), His-tag (detected by anti-His western blot), E. coli BL21(DE3); heat step and Sephacryl S-200) MKVLFLTANEFEDVELIYPYHRLKEEGHEVYIASFERGTITGKHGYSVKVDLTFDKVNPEEFDALVLPGGRAPERVRLNEKAVSIARKMFSEGKPVASICHGPQILISAGVLRGRKGTSSPGIKDDMINAGVEWVDAEVVVDGNWVSSRVPADLYAWMREFVKLLK" result_value=0.00245
protein="recombinant PH1704 protease from Pyrococcus horikoshii OT3 (enzyme, UniProt O59413 1-166, looked up, PH1704 protease, Pyrococcus horikoshii OT3, gene amplified from genomic DNA with primers at the start and at the stop codon, cloned NdeI/BamHI into pET-15b; The tag is known from detection with an anti-His tag antibody; also called WT; source: E. coli BL21 (DE3), purified (heat incubation at 80°C, Sephacryl S-200); copies: 12) MKVLFLTANEFEDVELIYPYHRLKEEGHEVYIASFERGTITGKHGYSVKVDLTFDKVNPEEFDALVLPGGRAPERVRLNEKAVSIARKMFSEGKPVASICHGPQILISAGVLRGRKGTSYPGIKDDMINAGVEWVDAEVVVDGNWVSSRVPADLYAWMREFVKLLK" result_value=0.0108
